Cited source for all entries: the supplement of paper PMC11451515

Test system: SEM cells
Assay: cell viability relative to DMSO control; higher = less cytotoxic
Conditions: RPMI 5 mM glucose + 10% FBS; 48 h; 0.000781 µM
For each record, write down the corresponding cell viability.
Answers are plain numbers, in %.

Here's what some known entries look like.
# ITEM SMILES, cell viability (%)
measured = [
    ("CC(C)C[C@H](NC(=O)[C@@H](O)[C@H](N)Cc1ccccc1)C(=O)O", 59.2),
    ("COc1ccc2cc1Oc1ccc(cc1)C[C@H]1c3cc(c(OC)cc3CCN1C)Oc1c(OC)c(OC)cc3c1[C@H](C2)N(C)CC3", 124),
    ("CNC(=O)C1=CC=C(C)C(=C1)N2C(=C/C(=C(/Br)C2=O)OCC3=C(F)C=C(F)C=C3)\\C", 110),
]

// cell viability lookup, key: NC(=O)NO
99.3

---

Test system: NOMO1
Assay: cell viability relative to DMSO control; higher = less cytotoxic
Details: RPMI 5 mM glucose + 10% FBS; 48 h; 0.569 µM
For each record, write down the corresponding cell viability.
One number for each entry, in %.

# ITEM SMILES, cell viability / %
rows = [
    ("COc1cc(CNC(=O)CCCC/C=C/C(C)C)ccc1O", 90.6),
    ("CNC(=O)C1=CC=C(C)C(=C1)N2C(=C/C(=C(/Br)C2=O)OCC3=C(F)C=C(F)C=C3)\\C", 139),
    ("N#C/N=C(\\NCCCCCCOc1ccc(Cl)cc1)Nc1ccncc1", 11.4),
]

We next turn to a different compound, shown below.
Please give the measured cell viability for this compound: CNC(=O)Nc1ccc(-c2nc(N3CC4CCC(C3)O4)c3cnn(C4CCC5(CC4)OCCO5)c3n2)cc1
74.7

---

Test system: P12-Ichikawa
Assay: cell viability relative to DMSO control; higher = less cytotoxic
Conditions: HPLM + 10% dialyzed FBS; 48 h; 0.0211 µM
QUANTITY NAME: cell viability (%)
Give bare numbers, in %.

Previously resolved entries follow.
# MOLECULE, SUBJECT OF TEST, UNIT OF MEASURE, OBSERVED VALUE
rows = [
    ("CN1CCN(CCCN2c3ccccc3Sc3ccc(C(F)(F)F)cc32)CC1", "P12-Ichikawa", "%", 108),
    ("NC/1=N/C(=O)N(/C=N1)[C@@H]2O[C@H](CO)[C@@H](O)[C@H]2O", "P12-Ichikawa", "%", 107),
]

Working through the 2 molecules below one at a time, give cell viability for each.
1. CC(O)C1C2C(C)\C(=C(/N2C1=O)C(O)=O)SC3CNC(C3)C(=O)N(C)C (stereo not given)
2. Nc1ncnc2c1nc(Cl)n2[C@@H]1O[C@H](CO)[C@@H](O)[C@H]1O

1. 88.3
2. 121

---

Provide the reported cell viability of each item.
System: NOMO1
Test: cell viability relative to DMSO control; higher = less cytotoxic
Settings: RPMI 5 mM glucose + 10% dialyzed FBS; 48 h; 0.00702 µM
One number for each entry, in %.

# COMPOUND, SUBJECT OF TEST, UNIT OF MEASURE, cell viability
data = [
    ("CNC(=O)CN1CCC(Oc2cc3c(Nc4cccc(Cl)c4F)ncnc3cc2OC)CC1", "NOMO1", "%", 138),
    ("Cc1c[nH]c(-c2cnc(NCCNc3ccc(C#N)cn3)nc2-c2ccc(Cl)cc2Cl)n1", "NOMO1", "%", 90.1),
    ("CC(C)(O)c1cc2nc(-c3cnc(N)nc3)nc(N3CCOCC3)c2s1", "NOMO1", "%", 114),
    ("C[C@H]1O[C@H](C[C@H](O)[C@@H]1O)O[C@H]2[C@@H](O)C[C@@H](O[C@@H]2C)O[C@H]3[C@@H](O)C[C@@H](O[C@@H]3C)O[C@H]4CC[C@@]5(C)[C@H](CC[C@@H]6[C@@H]5C[C@@H](O)[C@]7(C)[C@H](CC[C@]67O)C/8=C/C(=O)OC8)C4", "NOMO1", "%", 109),
    ("COc1ncc(-c2ccc3c(Nc4cc(Oc5cc(F)cc(F)c5)cc(C(=O)O)c4)c([S+](=O)([O-])NC4CC4)cnc3c2)c(OC)n1", "NOMO1", "%", 94),
]

Quick one: give me cell viability for each item below, same order please.
1. Cc1cccc(/C=N/Nc2cc(N3CCOCC3)nc(OCCc3ccccn3)n2)c1
2. C[C@]12CC[C@H]3[C@@H](CCC/4=C/C(=O)CC[C@]34C)[C@@H]1CC[C@@H]2OC(=O)CCC5CCCC5
3. CC(C)(O)/C=C\C(=O)[C@](C)(O)[C@H]1[C@H](O)C[C@]2(C)[C@@H]3CC=C4[C@@H](C=C(O)C(=O)C4(C)C)[C@]3(C)C(=O)C[C@@]12C

90.9
116
108

I have 6 compounds here; please give me cell viability for each one.
1. CCN1CCN(C(=O)Cc2ccc(Nc3ncc(F)c(Nc4ccc(C(=O)Nc5ccccc5Cl)cc4)n3)cc2)CC1
2. O=C(/C=C/c1ccc(O)cc1)c1ccc(O)cc1O
3. Cn1cc(C[C@@H](N)C(=O)O)c2ccccc21
4. C[C@](N)(Cc1ccc(O)c(O)c1)C(=O)O
5. CC(NCCc1ccc(O)cc1)C(O)c1ccc(O)cc1 (stereo unspecified)
6. CCOC(=O)\C1=C\[C@@H](OC(CC)CC)[C@H](NC(C)=O)[C@@H](N)C1

[104, 109, 93.4, 85, 109, 102]

Look at each compound and report its cell viability.
1. C1CCN2C[C@H]3C[C@H](\C=C/4CCCN[C@@H]34)[C@H]2C1
2. COc1ccc2cc1Oc1ccc(cc1)C[C@H]1c3cc(c(OC)cc3CCN1C)Oc1c(OC)c(OC)cc3c1[C@H](C2)N(C)CC3

1: 114; 2: 121
